Recorded fold change of affinity, one value per entry.
system: T1, Human CD137 ECD (human)
T1 construct: also called 4-1BB
T1 sequence (chain, as listed by the source limits assumed): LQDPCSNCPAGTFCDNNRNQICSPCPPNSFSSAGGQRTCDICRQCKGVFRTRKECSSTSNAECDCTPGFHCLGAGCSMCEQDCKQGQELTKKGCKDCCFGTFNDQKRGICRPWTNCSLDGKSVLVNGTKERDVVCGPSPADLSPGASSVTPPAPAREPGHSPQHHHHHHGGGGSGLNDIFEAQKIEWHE
assay_comment: SPR, vs parent H183/L072
Answer with a number only, understood to be in fold.

Solved entries:
- binder: "dBBDu183H S62T / dBBDu072L (antibody, name in Kabat numbering, V domains shown, as m1, one VH change) VH: QVQLVESGGGLVQPGRSLRLSCAASGFTFSNAWMHWVRQAPGKGLEWVAQIKDKGNAYAAYYAPTVKGRFTISRDDSKNSIYLQMNSLKTEDTAVYYCHYVHYASASTVLPAFGVDAWGQGTTVTVSS VL: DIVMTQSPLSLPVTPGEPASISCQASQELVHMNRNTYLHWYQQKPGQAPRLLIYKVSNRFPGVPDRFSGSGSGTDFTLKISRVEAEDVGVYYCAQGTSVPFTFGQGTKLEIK"
  reported: 1
- binder: "dBBDu183H S62Q / dBBDu072L (antibody, name in Kabat numbering, V domains shown, as m1, one VH change) VH: QVQLVESGGGLVQPGRSLRLSCAASGFTFSNAWMHWVRQAPGKGLEWVAQIKDKGNAYAAYYAPQVKGRFTISRDDSKNSIYLQMNSLKTEDTAVYYCHYVHYASASTVLPAFGVDAWGQGTTVTVSS VL: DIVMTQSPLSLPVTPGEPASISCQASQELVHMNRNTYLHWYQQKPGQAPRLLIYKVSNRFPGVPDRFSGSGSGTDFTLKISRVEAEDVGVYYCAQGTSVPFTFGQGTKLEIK"
  reported: 1
- binder: "dBBDu183H F100gH / dBBDu072L (antibody, name in Kabat numbering, V domains shown, as m1, one VH change) VH: QVQLVESGGGLVQPGRSLRLSCAASGFTFSNAWMHWVRQAPGKGLEWVAQIKDKGNAYAAYYAPSVKGRFTISRDDSKNSIYLQMNSLKTEDTAVYYCHYVHYASASTVLPAHGVDAWGQGTTVTVSS VL: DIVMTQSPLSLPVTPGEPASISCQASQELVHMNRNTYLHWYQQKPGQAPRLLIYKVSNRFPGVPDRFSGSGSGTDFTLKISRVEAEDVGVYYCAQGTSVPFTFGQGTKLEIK"
  reported: 0.7
- binder: "dBBDu183H D101T / dBBDu072L (antibody, name in Kabat numbering, V domains shown, as m1, one VH change) VH: QVQLVESGGGLVQPGRSLRLSCAASGFTFSNAWMHWVRQAPGKGLEWVAQIKDKGNAYAAYYAPSVKGRFTISRDDSKNSIYLQMNSLKTEDTAVYYCHYVHYASASTVLPAFGVTAWGQGTTVTVSS VL: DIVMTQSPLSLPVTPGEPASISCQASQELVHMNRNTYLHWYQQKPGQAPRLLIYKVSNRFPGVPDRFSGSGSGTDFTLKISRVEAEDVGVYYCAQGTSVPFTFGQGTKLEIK"
  reported: 3.3

Give the reported value of fold change of affinity for this record: dBBDu183H V63Q / dBBDu072L (antibody, name in Kabat numbering, V domains shown, as m1, one VH change) VH: QVQLVESGGGLVQPGRSLRLSCAASGFTFSNAWMHWVRQAPGKGLEWVAQIKDKGNAYAAYYAPSQKGRFTISRDDSKNSIYLQMNSLKTEDTAVYYCHYVHYASASTVLPAFGVDAWGQGTTVTVSS VL: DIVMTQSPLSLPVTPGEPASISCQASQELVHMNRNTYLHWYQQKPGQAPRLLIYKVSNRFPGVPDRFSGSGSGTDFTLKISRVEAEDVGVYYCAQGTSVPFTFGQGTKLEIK
1.3
